Data provenance is ChEMBL document CHEMBL1128563.

So I've got a bunch of compounds here, and I need their CC50 values.
System: HuT78
Assay: Cellular cytotoxicity against HUT-78 cells.
Format: functional
Settings: Homo sapiens
Give bare numbers, in µM.

Examples with their reported CC50 follow.
- compound-structure-string: "Fc1c(F)c(CN2CCCNCCNCCCNCC2)c(F)c(F)c1CN1CCCNCCNCCCNCC1"
  endpoint-result: 48
- compound-structure-string: "CCN1CCCN(CC)CCN(Cc2ccc(CN3CCCN(CC)CCN(CC)CCCN(CC)CC3)cc2)CCCN(CC)CC1"
  endpoint-result: 342
- compound-structure-string: "c1cc(CN2CCCNCCCNCCNCCC2)cc(CN2CCCNCCNCCCNCC2)c1"
  endpoint-result: 422
- compound-structure-string: "O=[N+]([O-])c1cc(CN2CCCNCCNCCCNCC2)cc(CN2CCCNCCNCCCNCC2)c1"
  endpoint-result: 45

Your task in this section: give CC50 for each listed record.
1. c1cc(CN2CCNCCCNCCNCC2)cc(CN2CCNCCCNCCNCC2)c1
2. c1cc(CN2CCCNCCNCCCNCC2)ccc1CN1CCCNCCNCCCNCC1
3. c1ccc(-c2cc(CN3CCCNCCNCCCNCC3)cc(CN3CCCNCCNCCCNCC3)c2)cc1
4. C(CCCN1CCCNCCNCCCNCC1)CCN1CCCNCCNCCCNCC1
5. c1cc(CCCN2CCCNCCNCCCNCC2)ccc1CCCN1CCCNCCNCCCNCC1

Output:
1. 192
2. 241
3. 198
4. 307
5. 283
